Just for reference, patent US9096624B2 is where these values come from.

Exercise: state measured pIC50 for each of the compounds provided.
# Tested On: FAK (Homo sapiens, UniProt Q05397)
# Sequence (Q05397 whole entry): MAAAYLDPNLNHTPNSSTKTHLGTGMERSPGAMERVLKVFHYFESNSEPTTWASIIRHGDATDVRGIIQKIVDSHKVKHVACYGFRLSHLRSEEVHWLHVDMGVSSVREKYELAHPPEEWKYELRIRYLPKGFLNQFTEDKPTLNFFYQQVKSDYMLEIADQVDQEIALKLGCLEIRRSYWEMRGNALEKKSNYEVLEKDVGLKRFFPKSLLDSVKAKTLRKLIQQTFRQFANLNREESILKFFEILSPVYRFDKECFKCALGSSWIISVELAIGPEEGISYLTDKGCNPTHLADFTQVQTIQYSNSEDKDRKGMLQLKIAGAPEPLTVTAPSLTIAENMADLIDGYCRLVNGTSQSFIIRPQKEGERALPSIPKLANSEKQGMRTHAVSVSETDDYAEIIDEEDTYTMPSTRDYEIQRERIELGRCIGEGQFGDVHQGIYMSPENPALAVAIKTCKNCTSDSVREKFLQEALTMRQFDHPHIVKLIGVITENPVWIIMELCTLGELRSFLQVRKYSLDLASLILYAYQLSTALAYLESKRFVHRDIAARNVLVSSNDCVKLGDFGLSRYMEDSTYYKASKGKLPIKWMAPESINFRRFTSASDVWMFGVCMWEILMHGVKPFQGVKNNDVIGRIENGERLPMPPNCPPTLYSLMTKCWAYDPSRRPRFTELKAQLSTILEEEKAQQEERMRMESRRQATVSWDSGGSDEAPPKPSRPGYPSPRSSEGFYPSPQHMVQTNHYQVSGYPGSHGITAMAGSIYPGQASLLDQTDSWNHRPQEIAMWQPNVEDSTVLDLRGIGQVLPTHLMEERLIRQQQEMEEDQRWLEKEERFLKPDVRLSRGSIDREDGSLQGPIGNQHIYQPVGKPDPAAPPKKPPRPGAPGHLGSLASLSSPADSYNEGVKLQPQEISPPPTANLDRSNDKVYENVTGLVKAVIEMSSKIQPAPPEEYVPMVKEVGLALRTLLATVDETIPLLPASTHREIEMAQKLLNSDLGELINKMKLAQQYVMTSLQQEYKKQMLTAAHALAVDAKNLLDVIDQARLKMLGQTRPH
# Assay Comment: Cell-based capture ELISA for inhibition of FAK autophosphorylation [pY397] in MiaPaCa2 cells
# Applied Conditions: MIA-PaCa2 cells, + 50% mouse plasma (Table 2); read-out: Mean FAK Cell Mechanistic IC50 + 50% mP MIA-PaCa2
pIC50: −log10 of the molar value.

IN: Lab note: need pIC50 with FAK (Homo sapiens, UniProt Q05397) for entry CNC(=O)c1ccccc1Nc1nc(Nc2ccc(CP(C)(C)=O)cc2)ncc1C(F)(F)F [Example 16] , please look it up.
OUT: > 6.00

IN: Lab note: need pIC50 with FAK (Homo sapiens, UniProt Q05397) for entry CC(C)OP(=O)(OC(C)C)c1ccc(Nc2ncc(C(F)(F)F)c(NCc3cccnc3N(C)S(C)(=O)=O)n2)cc1 [Example 38] , please look it up.
OUT: 5.00 to 6.00

IN: Lab note: need pIC50 with FAK (Homo sapiens, UniProt Q05397) for entry CC(C)OP(=O)(Cc1ccc(Nc2ncc(C(F)(F)F)c(NCc3cccnc3N(C)S(C)(=O)=O)n2)cc1)OC(C)C [Example 27] , please look it up.
OUT: 5.00 to 6.00

IN: Lab note: need pIC50 with FAK (Homo sapiens, UniProt Q05397) for entry CCOP(=O)(Cc1ccc(Nc2ncc(C(F)(F)F)c(NCc3cccc([S+](C)[O-])c3)n2)cc1)OCC (stereo not shown) [Example 47] , please look it up.
OUT: 5.00 to 6.00

----------
# Tested On: FAK (Homo sapiens)
# Assay Comment: Cell-based capture ELISA for inhibition of FAK autophosphorylation [pY397] in MiaPaCa2 cells
# Applied Conditions: MIA-PaCa2 cells, + 50% mouse plasma (Table 3); read-out: Mean FAK Cell Mechanistic IC50 + 50% mP MIA-PaCa2
pIC50: −log10 of the molar value.
Exercise: state measured pIC50 for each of the compounds provided.

IN: Look at this compound and give its reported pIC50. CCCP(=O)(CCC)c1ccc(Nc2ncc(C(F)(F)F)c(Nc3ccc([C@H]4CC[C@H](O)CC4)c4c3C(=O)N(C)C4)n2)cc1 [Example 198]
OUT: > 6.00

IN: Look at this compound and give its reported pIC50. CCOP(=O)(Cc1ccc(Nc2ncc(C(F)(F)F)c(Nc3ccccc3C(=O)N3CCCC3)n2)cc1)OCC [Example 176]
OUT: 5.00 to 6.00

IN: Look at this compound and give its reported pIC50. CCOP(=O)(Cc1ccc(Nc2ncc(C(F)(F)F)c(Nc3ccc([C@H]4CC[C@@H](N5CCN(C(C)=O)CC5)CC4)c4c3C(=O)N(C)C4)n2)c(OC)c1)OCC [Example 237]
OUT: > 6.00

----------
# Tested On: FAK (Homo sapiens)
# Assay Comment: Cell-based capture ELISA for inhibition of FAK autophosphorylation [pY397] in MiaPaCa2 cells
# Applied Conditions: MIA-PaCa2 cells, + 50% mouse plasma (Table 3); read-out: Mean FAK Cell Mechanistic IC50 + 50% mP MIA-PaCa2
pIC50: −log10 of the molar value.
Exercise: state measured pIC50 for each of the molecules provided.

IN: Look at this molecule and give its reported pIC50. CN1Cc2c(c(Nc3nc(Nc4ccc(CP5(=O)OCCCO5)cc4)ncc3C(F)(F)F)ccc2[C@H]2CC[C@H](O)CC2)C1=O
OUT: > 6.00

IN: Look at this molecule and give its reported pIC50. CCOP(=O)(Cc1ccc(Nc2ncc(C(F)(F)F)c(Nc3ccccc3C(=O)NC)n2)c(OC)c1F)OCC
OUT: > 6.00

IN: Look at this molecule and give its reported pIC50. COc1cc(CP(=O)(OCC(F)(F)F)OCC(F)(F)F)ccc1Nc1ncc(C(F)(F)F)c(Nc2cccc3c2C(=O)N(C)C3)n1
OUT: > 6.00

IN: Look at this molecule and give its reported pIC50. CCOP(=O)(Cc1ccc(Nc2ncc(C(F)(F)F)c(Nc3cccc4c3C(=O)N(C)C4=O)n2)c(OC)c1)OCC
OUT: 5.00 to 6.00

IN: Look at this molecule and give its reported pIC50. CCOP(C)(=O)Cc1ccc(Nc2ncc(C(F)(F)F)c(Nc3ccc([C@H]4CC[C@H](O)CC4)c4c3C(=O)N(C)C4)n2)cc1 (stereo partly shown)
OUT: > 6.00

IN: Look at this molecule and give its reported pIC50. CCOP(=O)(Cc1ccc(Nc2ncc(C(F)(F)F)c(Nc3ccc([C@H]4CC[C@H](O)CC4)cc3C(=O)NC)n2)cc1)OCC
OUT: > 6.00

IN: Look at this molecule and give its reported pIC50. CCOP(=O)(Cc1ccc(Nc2ncc(C(F)(F)F)c(Nc3ccc([C@H]4CC[C@H](N5CCN(C(C)=O)CC5)CC4)c4c3C(=O)N(C)C4)n2)c(OC)c1)OCC
OUT: > 6.00

IN: Look at this molecule and give its reported pIC50. CCOP(=O)(OCC)C(OCC(F)(F)F)c1ccc(Nc2ncc(C(F)(F)F)c(Nc3ccccc3C(=O)NC)n2)cc1 (stereo not shown)
OUT: 5.00 to 6.00

IN: Look at this molecule and give its reported pIC50. CCOP(=O)(O)Cc1ccc(Nc2ncc(C(F)(F)F)c(Nc3ccc(-c4cnn(CCCO)c4)c4c3C(=O)N(C)C4)n2)cc1
OUT: 5.00 to 6.00

IN: Look at this molecule and give its reported pIC50. CCOP(=O)(Cc1ccc(Nc2ncc(C(F)(F)F)c(Nc3ccc([C@H]4CC[C@@H](O)CC4)cc3C(=O)NC)n2)cc1)OCC
OUT: > 6.00

IN: Look at this molecule and give its reported pIC50. CCOc1cc(CP(=O)(OCC)OCC)ccc1Nc1ncc(C(F)(F)F)c(Nc2ccc([C@H]3CC[C@H](C(=O)OCC)CC3)c3c2C(=O)N(C)C3)n1
OUT: 5.00 to 6.00

IN: Look at this molecule and give its reported pIC50. CCOP(=O)(Cc1ccc(Nc2ncc(C(F)(F)F)c(Nc3ccc([C@H]4CC[C@@](C)(O)CC4)c4c3C(=O)N(C)C4)n2)c(OC)c1)OCC
OUT: > 6.00

IN: Look at this molecule and give its reported pIC50. CCOP(=O)(Cc1ccc(Nc2ncc(C(F)(F)F)c(Nc3ccc(-c4cnn(C[C@H](O)CO)c4)c4c3C(=O)N(C)C4)n2)cc1)OCC
OUT: > 6.00

IN: Look at this molecule and give its reported pIC50. CCOP(=O)(Cc1ccc(Nc2ncc(C(F)(F)F)c(Nc3ccc(OC(C)C)c4c3C(=O)N(C)C4)n2)cc1)OCC
OUT: > 6.00

IN: Look at this molecule and give its reported pIC50. CCOP(=O)(Cc1ccc(Nc2ncc(C(F)(F)F)c(Nc3ccc([C@H]4CC[C@H](O)CC4)c4c3C(=O)N(C)C4)n2)nc1)OCC
OUT: > 6.00

IN: Look at this molecule and give its reported pIC50. CNC(=O)c1ccccc1Nc1nc(Nc2ccc(CP(=O)(OCCOC)OCCOC)cc2)ncc1C(F)(F)F
OUT: > 6.00

IN: Look at this molecule and give its reported pIC50. CNC(=O)c1ccccc1Nc1nc(Nc2ccc(CP(C)(=O)OCCOC)cc2OC)ncc1C(F)(F)F (stereo not shown)
OUT: > 6.00

IN: Look at this molecule and give its reported pIC50. CCOP(=O)(Cc1ccc(Nc2ncc(C(F)(F)F)c(Nc3ccc(C4CCN(C)CC4)c4c3C(=O)N(C)C4)n2)cc1)OCC
OUT: > 6.00

IN: Look at this molecule and give its reported pIC50. COCCOP(=O)(Cc1ccc(Nc2ncc(C(F)(F)F)c(Nc3ccc([C@H]4CC[C@H](O)CC4)c4c3C(=O)N(C)C4)n2)c(OC)c1)OCCOC
OUT: > 6.00

IN: Look at this molecule and give its reported pIC50. CCOP(=O)(Cc1ccc(Nc2ncc(C(F)(F)F)c(Nc3ccc(N4CCN(C(C)=O)CC4)c4c3C(=O)N(C)C4)n2)c(OC)c1)OCC
OUT: > 6.00

IN: Look at this molecule and give its reported pIC50. CCOP(=O)(Cc1ccc(Nc2ncc(C(F)(F)F)c(Nc3ccc([C@H]4CC[C@](C)(O)CC4)c4c3C(=O)N(C)C4)n2)c(OC)c1)OCC
OUT: > 6.00

IN: Look at this molecule and give its reported pIC50. CCOP(=O)(Cc1ccc(Nc2ncc(C(F)(F)F)c(Nc3ccc(C4=CCN(C(N)=O)CC4)c4c3C(=O)N(C)C4)n2)c(OC)c1)OCC
OUT: > 6.00

IN: Look at this molecule and give its reported pIC50. CCOP(=O)(Cc1ccc(Nc2ncc(C(F)(F)F)c(Nc3ccc([C@H]4CC[C@H](O)CC4)c4c3C(=O)N(C)C4)n2)cn1)OCC
OUT: > 6.00

IN: Look at this molecule and give its reported pIC50. CCOP(=O)(Cc1ccc(Nc2ncc(C(F)(F)F)c(Nc3ccc(C#N)cc3C(=O)NC)n2)c(OC)c1)OCC
OUT: > 6.00

IN: Look at this molecule and give its reported pIC50. CCOP(=O)(OCC)C1CCC(c2ccc(Nc3nc(Nc4ccccc4OC)ncc3C(F)(F)F)c3c2CN(C)C3=O)CC1 (mixture of isomers)
OUT: > 6.00
